All values here come from PubChem BioAssay AID1778.

System: Kappa-type opioid receptor (Homo sapiens) (UniProt P41145)
Sequence (P41145 whole entry, looked up): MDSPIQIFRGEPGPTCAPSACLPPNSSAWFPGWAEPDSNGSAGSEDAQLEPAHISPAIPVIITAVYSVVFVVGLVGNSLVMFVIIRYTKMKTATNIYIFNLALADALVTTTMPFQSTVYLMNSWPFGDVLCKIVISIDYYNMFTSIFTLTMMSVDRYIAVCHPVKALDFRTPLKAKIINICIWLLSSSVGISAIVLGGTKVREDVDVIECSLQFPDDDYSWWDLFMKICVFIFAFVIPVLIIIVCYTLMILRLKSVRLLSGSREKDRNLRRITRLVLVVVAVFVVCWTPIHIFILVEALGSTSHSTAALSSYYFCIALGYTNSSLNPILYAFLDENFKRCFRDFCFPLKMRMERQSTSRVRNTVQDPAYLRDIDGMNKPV
Test details: kappa opioid receptor blockers – cell-based, luminescence, uHTS (AID 1778)
Test conditions: KOR beta-arrestin recruitment, antagonist mode; at 10 µM unless noted
The campaign covered roughly 290,000 compounds. About 260 (0.09%) were called active. Cut-off read from the data, not from the text of the source: active = inhibition above about 50%; inactive = the rest. This is one part of a sample in which actives are shown more often than they occur. Measured potencies and affinities stand elsewhere.
Mark one answer only. Choices: active, inactive

Cc1ccccc1N(C(=O)Cn1nnc(-c2cccs2)n1)C(C(=O)NCCC(C)C)c1ccco1 (configuration not stated)	inactive
O=C(Nc1ccc(OC(F)(F)F)cc1)c1ccc2ccccc2n1	inactive
Cc1cccc(N(C(=O)c2snc(C(N)=O)c2N)C(C(=O)NC2CCCC2)c2ccncc2)c1 (configuration not stated)	inactive
Oc1ccc(/C=N/Nc2ccnc3cc(Cl)ccc23)c(O)c1	inactive
COc1cccc(N2C(=O)C3C(C2=O)C3(c2ccccc2)c2ccccc2)c1 (configuration not stated)	inactive

In this assay, the call recorded for CCC(C)(C)NC(=O)C1CCN(c2nc(OC)nc(OC)n2)CC1 was what?
inactive

Now the molecule O=S(=O)(NCCc1ccccc1)c1ccc(-n2cnnn2)cc1
inactive

Can you check COc1ccc(C[C@H]2CN3C(=NC[C@@H]3Cc3ccc(O)cc3)N2C[C@H](C)NC(=O)c2ccc(C)c(Br)c2)cc1 next?
inactive

Record: CCN1C(=O)c2ccccc2S(=O)(=O)c2ccc(C(=O)N3CCOCC3)cc21
inactive

Okay, and C=CCNCC(=O)Nc1ccccc1SCC(=O)Nc1ccsc1C(=O)OC ?
inactive

One more molecule: O=C(NCc1ccco1)c1cccc(C(F)(F)F)c1
inactive
